These entries and their values trace back to the supplement of paper PMC11061612.

# Tested on: C32 (Melanoma);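 also: after 72 h of two-drug dosing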
# protocolDescription: Bliss excess, mean over the matrix (fraction); higher = more synergy
metricName: Bliss excess
// no unit, no text: just the number

| compound | measured |
| --- | --- |
| Cc1nc(Nc2ncc(C(=O)Nc3c(C)cccc3Cl)s2)cc(N2CCN(CCO)CC2)n1 [Dasatinib] + CC(=O)Nc1cccc(-n2c(=O)n(C3CC3)c(=O)c3c(Nc4ccc(I)cc4F)n(C)c(=O)c(C)c32)c1 [Trametinib] (first compound max 2 µM, 7x7, partner max 1 µM) | -0.0198 |
| NC1(C(=O)N[C@@H](CCO)c2ccc(Cl)cc2)CCN(c2ncnc3[nH]ccc23)CC1 [Capivasertib] + CCN(CCO)CCCOc1ccc2c(Nc3cc(CC(=O)Nc4cccc(F)c4)[nH]n3)ncnc2c1 [AZD2811] (first compound max 10 µM, 7x7, partner max 1 µM) | 0.0477 |

Okay, next one:
## Input Give recorded Bliss excess. CN(CCO)CC[C@H](CSc1ccccc1)Nc1ccc(S(=O)(=O)NC(=O)c2ccc(N3CCC([C@@H](O)c4ccccc4-c4ccc(Cl)cc4)CC3)cc2)cc1S(=O)(=O)C(F)(F)F [AZD4320] + Nc1ccn([C@@H]2O[C@H](CO)[C@@H](O)C2(F)F)c(=O)n1 [Gemcitabine] (first compound max 1 µM, 7x7, partner max 0.3 µM)
## Output 0.0027
